# Test system: MOLT-4 cells
# ASSAY_DETAILS: MOLT-4 Cell Proliferation Assay (CellTiter-Glo)
# Assay type: cell-based
# EXPERIMENTAL_CONDITIONS: Homo sapiens, 72 h, read-out: MOLT-4 CTG IC50
Documented IC50 across a set of compounds

# annotated cases, reported IC50 shown
Cc1cc([C@@H](C(=O)N2C[C@H](O)C[C@H]2C(=O)N[C@@H](CC(=O)NCCCCCC(=O)N2CCN(CC[C@H](CSc3ccccc3)Nc3ccc(S(=O)(=O)NC(=O)c4ccc(N5CCN(CC6=C(C78CC(C(F)F)(C7)C8)CC(C)(C)CC6)CC5)cc4)cc3S(=O)(=O)C(F)(F)F)CC2)c2ccc(-c3scnc3C)cc2)C(C)C)on1 ... ≥ 150 nM
Cc1ncsc1-c1ccc([C@H](C)NC(=O)[C@@H]2C[C@@H](O)CN2C(=O)[C@@H](NC(=O)CCCCCN2CCN(CC[C@H](CSc3ccccc3)Nc3ccc(S(=O)(=O)NC(=O)c4ccc(N5CCN(CC6=C(C78CC(C)(C7)C8)CC(C)(C)CC6)CC5)cc4)cc3S(=O)(=O)C(F)(F)F)CC2)C(C)(C)C)cc1 ... ≥ 150 nM

Turning now to a further compound:
Ask: Using the record for `Cc1ncsc1-c1ccc([C@H](C)NC(=O)[C@@H]2C[C@@H](O)CN2C(=O)[C@@H](NC(=O)CCCCCCCN(C)CC[C@H](CSc2ccccc2)Nc2ccc(S(=O)(=O)NC(=O)c3ccc(N4CCN(CC5=C(C67CC(C(F)F)(C6)C7)CC(C)(C)CC5)CC4)cc3)cc2S(=O)(=O)C(F)(F)F)C(C)(C)C)cc1` , report its IC50.
Reply: 50 to 150 nM
